Each entry below carries its recorded IC50.
target: human TLR9 (Homo sapiens, UniProt Q9NR96); experiment: TLR9 inhibition reporter assay (HEK-Blue cells, SEAP reporter, ODN2006 stimulation); settings: HEK-Blue cells overexpressing human TLR9, SEAP reporter, ODN2006 5 nM
Sequence (Q9NR96 26-1032): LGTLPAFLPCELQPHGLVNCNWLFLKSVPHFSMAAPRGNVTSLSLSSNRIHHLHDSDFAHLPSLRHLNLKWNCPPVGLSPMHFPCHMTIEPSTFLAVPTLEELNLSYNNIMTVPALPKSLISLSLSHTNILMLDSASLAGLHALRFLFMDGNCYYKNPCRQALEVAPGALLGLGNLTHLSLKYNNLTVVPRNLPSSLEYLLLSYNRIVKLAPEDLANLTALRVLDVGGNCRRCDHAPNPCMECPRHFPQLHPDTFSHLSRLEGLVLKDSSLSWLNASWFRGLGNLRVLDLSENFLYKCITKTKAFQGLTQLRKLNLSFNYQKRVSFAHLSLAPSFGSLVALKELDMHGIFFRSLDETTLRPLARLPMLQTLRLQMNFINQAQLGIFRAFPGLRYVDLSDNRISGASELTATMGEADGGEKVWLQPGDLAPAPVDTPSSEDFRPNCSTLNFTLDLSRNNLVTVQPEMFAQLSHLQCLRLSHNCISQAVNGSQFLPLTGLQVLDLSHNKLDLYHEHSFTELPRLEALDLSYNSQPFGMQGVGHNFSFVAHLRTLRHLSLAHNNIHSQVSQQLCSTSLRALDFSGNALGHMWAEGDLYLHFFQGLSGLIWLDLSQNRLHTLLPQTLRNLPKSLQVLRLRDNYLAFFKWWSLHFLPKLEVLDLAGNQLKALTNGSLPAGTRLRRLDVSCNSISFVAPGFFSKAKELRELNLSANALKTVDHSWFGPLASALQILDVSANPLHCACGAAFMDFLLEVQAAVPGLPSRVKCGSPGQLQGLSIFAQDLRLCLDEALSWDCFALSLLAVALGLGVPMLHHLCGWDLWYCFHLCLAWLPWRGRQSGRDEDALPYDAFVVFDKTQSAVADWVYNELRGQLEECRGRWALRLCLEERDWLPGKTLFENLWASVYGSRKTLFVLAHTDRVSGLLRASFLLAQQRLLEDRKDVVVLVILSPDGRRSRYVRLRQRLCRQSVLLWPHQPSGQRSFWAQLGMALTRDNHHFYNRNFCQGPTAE
measured-metric: IC50

| compound | recorded-result |
| --- | --- |
| Cc1c(-c2[nH]c3sc(C4CCC(N5CC6(C5)CS(=O)(=O)C6)CC4)nc3c2C(C)C)cn2ncnc2c1C (single isomer, unassigned) [Example 233] | > 50 µM |
| Cc1c(-c2[nH]c3sc(C4CCC(NC5COC5)CC4)nc3c2C(C)C)cn(C)c(=O)c1C (single isomer, unassigned) [Example 242] | > 50 µM |
| Cc1c(-c2[nH]c3sc(C4CCC(N5CCNC(=O)C5)CC4)nc3c2C(C)C)cn2ncnc2c1C (single isomer, unassigned) [Example 220] | > 50 µM |

====

Each entry below carries its recorded IC50.
Molecular target: human TLR7 (Homo sapiens, UniProt Q9NYK1)
Construct: host or cells: HEK-Blue cells
Sequence (Q9NYK1 27-1049): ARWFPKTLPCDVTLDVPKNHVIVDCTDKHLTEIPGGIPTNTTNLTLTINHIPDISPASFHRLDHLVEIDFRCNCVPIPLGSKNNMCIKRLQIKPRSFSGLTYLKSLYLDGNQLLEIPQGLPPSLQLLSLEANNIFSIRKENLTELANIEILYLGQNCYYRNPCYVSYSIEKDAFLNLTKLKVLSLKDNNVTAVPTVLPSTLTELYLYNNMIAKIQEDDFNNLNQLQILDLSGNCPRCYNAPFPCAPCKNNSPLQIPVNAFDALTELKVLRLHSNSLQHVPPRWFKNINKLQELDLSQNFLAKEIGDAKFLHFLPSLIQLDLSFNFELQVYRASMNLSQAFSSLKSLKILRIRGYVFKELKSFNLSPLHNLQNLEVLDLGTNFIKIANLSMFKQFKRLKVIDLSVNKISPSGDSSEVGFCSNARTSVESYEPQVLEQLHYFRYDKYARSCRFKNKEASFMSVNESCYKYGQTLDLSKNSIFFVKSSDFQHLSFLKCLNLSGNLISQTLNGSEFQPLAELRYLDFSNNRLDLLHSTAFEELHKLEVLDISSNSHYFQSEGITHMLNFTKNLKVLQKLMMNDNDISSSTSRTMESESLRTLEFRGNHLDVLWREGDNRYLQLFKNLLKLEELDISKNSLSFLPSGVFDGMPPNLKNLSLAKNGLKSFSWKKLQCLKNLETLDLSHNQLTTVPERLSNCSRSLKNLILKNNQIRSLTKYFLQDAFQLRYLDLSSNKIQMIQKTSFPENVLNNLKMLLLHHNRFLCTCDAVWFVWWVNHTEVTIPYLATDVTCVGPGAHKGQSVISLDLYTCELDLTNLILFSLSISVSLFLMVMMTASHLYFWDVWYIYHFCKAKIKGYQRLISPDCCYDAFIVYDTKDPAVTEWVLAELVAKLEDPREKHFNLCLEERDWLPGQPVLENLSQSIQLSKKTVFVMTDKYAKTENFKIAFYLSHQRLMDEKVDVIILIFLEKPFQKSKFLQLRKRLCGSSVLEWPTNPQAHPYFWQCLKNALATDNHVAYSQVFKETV
Assay: TLR7 inhibition reporter assay (HEK-Blue cells, SEAP reporter, gardiquimod stimulation)
Format: cell-based
Settings: HEK-Blue cells overexpressing human TLR7, SEAP reporter, gardiquimod 7.5 μM; read-out: TLR7 IC50
measured-metric: IC50 (nM)

| molecule | recorded-result |
| --- | --- |
| COc1cc(-c2[nH]c3sc(C4CCC(N(C)C(C)C)CC4)nc3c2C(C)C)cn2ncnc12 (single isomer, unassigned) [Example 88] | 0.81 |
| CCN(C)C1CCN(c2nc3c(C(C)C)c(-c4cn5ncnc5c(C)c4C)[nH]c3s2)CC1 | 1.56 |
| Cc1cc(-c2[nH]c3sc(C4CCN(CC(C)(C)O)CC4)nc3c2C(C)C)cn2ncnc12 | 5.69 |
| CC(C)c1c(-c2cn(C)c3ncccc23)[nH]c2sc(C3CCC(NCC(C)(C)O)CC3)nc12 (single isomer, unassigned) [Example 183] | 8.89 |
| Cc1c(-c2[nH]c3sc(N4CCN(CC(=O)N(C)C)C[C@H]4C)nc3c2C(C)C)cn2ncnc2c1C | 5.42 |
| Cc1c(-c2[nH]c3sc(C4CCC(N5CC6(C5)CS(=O)(=O)C6)CC4)nc3c2C(C)C)cn2ncnc2c1C (single isomer, unassigned) [Example 234] | 15.1 |
| CNCCNC1CCC(c2nc3c(C(C)C)c(-c4cc(OC)c5ncnn5c4)[nH]c3s2)CC1 (single isomer, unassigned) [Example 171] | 0.78 |
| Cc1cc(-c2[nH]c3sc(C(=O)N4CCC(N(C)C)CC4)nc3c2C(C)C)cn2ncnc12 | 7.89 |
| COC(C)(C)CNC1CCC(c2nc3c(C(C)C)c(-c4cn(C)c(=O)c(C)c4C)[nH]c3s2)CC1 (single isomer, unassigned) [Example 244] | 44 |
| COc1cc(-c2[nH]c3cc(C4CCNCC4)sc3c2C(C)C)cn2ncnc12 | 5.3 |
| Cc1cc(-c2[nH]c3sc(N4CCNC[C@H]4C)nc3c2C(C)C)cn2ncnc12 | 1400 |
| Cc1c(-c2[nH]c3sc(C4CCN(CCS(C)(=O)=O)CC4)nc3c2C(C)C)cn(C)c(=O)c1C | 22.7 |
| Cc1c(-c2[nH]c3sc(N4CC5(CN(CC(C)(C)O)C5)C4)nc3c2C(C)C)cn2ncnc2c1C | 7.99 |
